Assay type: physicochemical
Conditions used: DI water, 25° C., 0.5 mM, time 5 min
Metric name: Condition 2 Conversion (%)
Please state the figure in %; there is no need to write the unit.

Solved entries (count: 7):
1. CCCCC(=O)OC1=C[C@@H]2N(C)CC[C@]2(c2ccc(OC)c(OC)c2)CC1    0
2. COc1ccc([C@@]23CCC(OC(=O)c4ccc(C(F)(F)F)cc4)=C[C@@H]2N(C)CC3)cc1OC    0
3. COc1ccc([C@@]23CCC(=NNC(=O)c4ccc(F)cc4)C[C@@H]2N(C)CC3)cc1OC    21.53
4. COc1ccc([C@]23CCN(C)[C@H]2CC2(CC3)Oc3ccccc3O2)cc1OC    0
5. COc1ccc([C@@]23CCC(=NNC(=O)CCCC(=O)O)C[C@@H]2N(C)CC3)cc1OC    50
6. COc1ccc([C@]23CCN(C)[C@H]2CC2(CC3)OCC(C34CC5CC(CC(C5)C3)C4)O2)cc1OC (some centres unmarked)    0
7. CCC(C)CC(=O)OC1=C[C@@H]2N(C)CC[C@]2(c2ccc(OC)c(OC)c2)CC1 (some centres unmarked)    0

In plain terms, COc1ccc([C@]23CCN(C)[C@H]2CC2(CC3)OCC(COc3ccccc3OC)O2)cc1OC (some centres unmarked) has a documented Condition 2 Conversion (%) of 0
